Measurement Target: GT1a R155K NS3/4A protease
Format: biochemical, Hepatitis C virus
Experimental Conditions: fold change in Ki, R155K relative to WT
Measured Metric: Ki R155K (fold change)
// no unit string in output, number only

Examples with their reported Ki R155K (fold change) follow.
Compound	Ki R155K (fold change)
C=C[C@@H]1C[C@]1(NC(=O)[C@@H]1C[C@@H](Oc2nc3cc(OC)ccc3nc2C(C)C)CN1C(=O)[C@@H](NC(=O)OC1CCCC1)C(C)(C)C)C(=O)NS(=O)(=O)C1(C)CC1 [Compound 12c]	2.0
C=C[C@@H]1C[C@]1(NC(=O)[C@@H]1C[C@@H](Oc2nc3cc(OC)ccc3nc2C)CN1C(=O)[C@@H](NC(=O)OC(C)(C)C)C(C)(C)C)C(=O)NS(=O)(=O)C1(C)CC1 [Compound 10b]	1.0
C=C[C@@H]1C[C@]1(NC(=O)[C@@H]1C[C@@H](Oc2nc3cc(OC)ccc3nc2C(C)C)CN1C(=O)[C@@H](NC(=O)OC1CCCC1)C(C)(C)C)C(=O)NS(=O)(=O)C1CC1 [Compound 11c]	3
C=C[C@@H]1C[C@]1(NC(=O)[C@@H]1C[C@@H](Oc2nc3cc(OC)ccc3nc2C(F)(F)F)CN1C(=O)[C@@H](NC(=O)OC(C)(C)C)C(C)(C)C)C(=O)NS(=O)(=O)C1CC1 [Compound 9e]	0.3
C=C[C@@H]1C[C@]1(NC(=O)[C@@H]1C[C@@H](Oc2nc3cc(OC)ccc3nc2Cl)CN1C(=O)[C@@H](NC(=O)OC1CCCC1)C(C)(C)C)C(=O)NS(=O)(=O)C1CC1 [Compound 11d]	1.1

Data request: Item under review: C=C[C@@H]1C[C@]1(NC(=O)[C@@H]1C[C@@H](Oc2nc3cc(OC)ccc3nc2C(C)C)CN1C(=O)[C@@H](NC(=O)OC(C)(C)C)C(C)(C)C)C(=O)NS(=O)(=O)C1(C)CC1 [Compound 10c] . Reported Ki R155K (fold change)?
Data returned: 0.9

Data request: I have this compound here, C=C[C@@H]1C[C@]1(NC(=O)[C@@H]1C[C@@H](Oc2nc3cc(OC)ccc3nc2C(F)(F)F)CN1C(=O)[C@@H](NC(=O)OC1CCCC1)C(C)(C)C)C(=O)NS(=O)(=O)C1(C)CC1 [Compound 12e] , and I need its recorded Ki R155K (fold change).
Data returned: 1.0

Data request: # input compound: C=C[C@@H]1C[C@]1(NC(=O)[C@@H]1C[C@@H](Oc2nc3cc(OC)ccc3nc2CC)CN1C(=O)[C@@H](NC(=O)OC1CCCC1)C(C)(C)C)C(=O)NS(=O)(=O)C1(C)CC1 [Compound 12a] ; wanted: its Ki R155K (fold change)
Data returned: 1.9

Data request: Can you share its Ki R155K (fold change)? I mean this compound: C=C[C@@H]1C[C@]1(NC(=O)[C@@H]1C[C@@H](Oc2nc3cc(OC)ccc3nc2Cl)CN1C(=O)[C@@H](NC(=O)OC1CCCC1)C(C)(C)C)C(=O)NS(=O)(=O)C1(C)CC1 [Compound 12d]
Data returned: 1.3

Data request: Give the measured Ki R155K (fold change) of C=C[C@@H]1C[C@]1(NC(=O)[C@@H]1C[C@@H](Oc2nc3cc(OC)ccc3nc2C(F)(F)F)CN1C(=O)[C@@H](NC(=O)OC(C)(C)C)C(C)(C)C)C(=O)NS(=O)(=O)C1(C)CC1 [Compound 10e] .
Data returned: 0.3
